- System: VchCAST RNA-guided transposition machinery (E. coli BL21(DE3) host, lacZ target)
- experimental protocol: relative integration efficiency (T-LR orientation) vs wild-type transposon end (log2 (normalized fold change)); transposon end mutated: right end (5 bp flank + 75 bp right end); higher = more efficient transposition
measurement label: relative integration efficiency (log2)
Just the number, please, no unit attached.

Past entries and their recorded results:
residue string	experimental target	relative integration efficiency (log2)
ACATTTGTTGATACAACCATAAAATGATAATTACACCACTAAATTGATAATTATCACACCCATAAATTGATATTGCCTCTGATCATAGTCAGACCAACATTGCTACGACCCGTATTCGCACCGACAC	VchCAST RNA-guided transposition machinery (E. coli BL21(DE3) host, lacZ target)	-2.09
ACATTTGTTGATACAACCATAAAATGATTATTACACCCATAAATTGATAATTGTGACACCGAATTTAACTATAACGCTCTGATCATAGTCAGACCAACATTGCTACGACCCGTATTCGCACCGACAC	VchCAST RNA-guided transposition machinery (E. coli BL21(DE3) host, lacZ target)	2.3
ACATTTGTTGATACAACCAATAAAAGATTAATACCCCCATTAATTGATAATTGTGACACCGAATTTAACTATAACGCTCTGATCATAGTCAGACCAACATTGCTACGACCCGTATTCGCACCGACAC	VchCAST RNA-guided transposition machinery (E. coli BL21(DE3) host, lacZ target)	-2.97

Entry ACATTTGTTGATACAACCATAAGTTGATATTTTCAACCATAAGTTGATATTTTTCACACCCATAAATTGATATTGCCTCTGATCATAGTCAGACCAACATTGCTACGACCCGTATTCGCACCGACAC ; assay system VchCAST RNA-guided transposition machinery (E. coli BL21(DE3) host, lacZ target); relative integration efficiency (log2) recorded at 0.248

Entry ACATTTGCTGATACTACCATTTAATGATAATAACACCCATAAAATGATAATTATCACACCCAATTTAACTATAACGCTCTGATCATAGTCAGACCAACATTGCTACGACCCGTATTCGCACCGACAC ; assay system VchCAST RNA-guided transposition machinery (E. coli BL21(DE3) host, lacZ target); relative integration efficiency (log2) recorded at -0.487

Entry ACATTTGTTGATACAACCATAAAATCATAATTACCCCCATAAATTGATAATTATCACACCCCATTTAACTATAACGCTCTGATCATAGTCAGACCAACATTGCTACGACCCGTATTCGCACCGACAC ; assay system VchCAST RNA-guided transposition machinery (E. coli BL21(DE3) host, lacZ target); relative integration efficiency (log2) recorded at 0.532

Entry ACATTTGTTGATACAACCATAAAATGATAATTACTGGGATAAATTGATAATTATCACACCCATAAATTGATATTGCCTCTGATCATAGTCAGACCAACATTGCTACGACCCGTATTCGCACCGACAC ; assay system VchCAST RNA-guided transposition machinery (E. coli BL21(DE3) host, lacZ target); relative integration efficiency (log2) recorded at -0.993

Entry ACATTTGTTGATACAACCATATTTTGATAATTACACCCATATTATGATAATTATCACACCCATATTATGATATTGCCTCTGATCATAGTCAGACCAACATTGCTACGACCCGTATTCGCACCGACAC ; assay system VchCAST RNA-guided transposition machinery (E. coli BL21(DE3) host, lacZ target); relative integration efficiency (log2) recorded at -0.241

Entry ACATTTGTTGATACAACCATAAAATCTATATTACACCCATAAATTGATAATTATCACACCCATAAATTGATATTGCCTCTGATCATAGTCAGACCAACATTGCTACGACCCGTATTCGCACCGACAC ; assay system VchCAST RNA-guided transposition machinery (E. coli BL21(DE3) host, lacZ target); relative integration efficiency (log2) recorded at -1.85

Entry ACATTTGTTGATACAACCTATTAATGATAATTACACCCATAAATTGATAATTATCACACCCATAAATTGATATTGCCTCTGATCATAGTCAGACCAACATTGCTACGACCCGTATTCGCACCGACAC ; assay system VchCAST RNA-guided transposition machinery (E. coli BL21(DE3) host, lacZ target); relative integration efficiency (log2) recorded at -1.46

Entry ACATTTGTTGATACACCCATAAATTGATATTGCCAACCATATATTGATATCTCTCACACCCATAAATTGATAATTACTCTGATCATAGTCAGACCAACATTGCTACGACCCGTATTCGCACCGACAC ; assay system VchCAST RNA-guided transposition machinery (E. coli BL21(DE3) host, lacZ target); relative integration efficiency (log2) recorded at 0.0732

Entry ACATTTGTCAACCATAAAATGATAATTACACCCATAAATTGATAATTATCACACCCATAAATTGATATTGCCTCTGATCATAGTCAGACCAACATTGCTACGACCCGTATTCGCACCGACACTGACT ; assay system VchCAST RNA-guided transposition machinery (E. coli BL21(DE3) host, lacZ target); relative integration efficiency (log2) recorded at -4.8
